The reported measurements were obtained from the supplement of paper PMC12042874.

Exercise: for every item that follows, state its recorded amyloid nucleation score.
# experiment_summary: amyloid nucleation score (Sup35N fusion, yeast selection) (log enrichment); library NNK2; higher = more nucleation; inactive = no reads after selection;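 further: zero at mode of non-aggregating sequences after 7 days selection at 30°C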
Write the value as a bare number.

Using the record for `TGCVKGYSSRWWESFYGGTR` , state its measured amyloid nucleation score. -0.762

Using the record for `NRGWSFKLQWHYSLSYTS` , state its measured amyloid nucleation score. 4

Using the record for `HRVRSDDLVKAWPQWNALGA` , state its measured amyloid nucleation score. 1.18

Using the record for `VYAVDTTW` , state its measured amyloid nucleation score. 0.237

Using the record for `LWDEVAGVAVKI` , state its measured amyloid nucleation score. 3.3

Using the record for `IMIILLVSVTKSNFTPQSMC` , state its measured amyloid nucleation score. 2.26

Using the record for `MDSDNFLQYYSRYFNEVAFC` , state its measured amyloid nucleation score. -0.145

Using the record for `VARVWEWFCVCWTWDSELVG` , state its measured amyloid nucleation score. 3.69

Using the record for `TYFVVGDSLSVIFSGRNWGV` , state its measured amyloid nucleation score. 5.41

Using the record for `LYWNVAGLGPQYKSLCLGFR` , state its measured amyloid nucleation score. -0.753

Using the record for `CRSATEPCVLSC` , state its measured amyloid nucleation score. 0.56

Using the record for `GSYVTAISAHFVGKLCASRI` , state its measured amyloid nucleation score. 0.343
